Source listed as the supplement of paper PMC10065799.

# system-name: FGFR1 (UniProt P11362)
# test-details: phosphorylation enrichment, bacterial display (enrichment ratio); higher = better substrate or ligand; peptides without Tyr show the background;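 further: 11-residue human phosphosite peptides and single-mutation variants displayed on the E. coli surface, counted by deep sequencing, each peptide's frequency after selection divided by its frequency in the unselected input library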;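 further: frequency after pTyr selection over input frequency; kinase dosed for 20-30% of maximal phosphorylation in three min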
property: phosphorylation enrichment
# print the numeric value only

Q: State, in one line, measured phosphorylation enrichment of MALDRYVAICK [OR2B11_Y127]
A: 0.508

Q: State, in one line, measured phosphorylation enrichment of IWGKKYPTCNS [PTPRZ1_Y53_N48I]
A: 0.432

----------
# system-name: EPHB2 (UniProt P29323)
# Sequence (P29323 whole entry, looked up): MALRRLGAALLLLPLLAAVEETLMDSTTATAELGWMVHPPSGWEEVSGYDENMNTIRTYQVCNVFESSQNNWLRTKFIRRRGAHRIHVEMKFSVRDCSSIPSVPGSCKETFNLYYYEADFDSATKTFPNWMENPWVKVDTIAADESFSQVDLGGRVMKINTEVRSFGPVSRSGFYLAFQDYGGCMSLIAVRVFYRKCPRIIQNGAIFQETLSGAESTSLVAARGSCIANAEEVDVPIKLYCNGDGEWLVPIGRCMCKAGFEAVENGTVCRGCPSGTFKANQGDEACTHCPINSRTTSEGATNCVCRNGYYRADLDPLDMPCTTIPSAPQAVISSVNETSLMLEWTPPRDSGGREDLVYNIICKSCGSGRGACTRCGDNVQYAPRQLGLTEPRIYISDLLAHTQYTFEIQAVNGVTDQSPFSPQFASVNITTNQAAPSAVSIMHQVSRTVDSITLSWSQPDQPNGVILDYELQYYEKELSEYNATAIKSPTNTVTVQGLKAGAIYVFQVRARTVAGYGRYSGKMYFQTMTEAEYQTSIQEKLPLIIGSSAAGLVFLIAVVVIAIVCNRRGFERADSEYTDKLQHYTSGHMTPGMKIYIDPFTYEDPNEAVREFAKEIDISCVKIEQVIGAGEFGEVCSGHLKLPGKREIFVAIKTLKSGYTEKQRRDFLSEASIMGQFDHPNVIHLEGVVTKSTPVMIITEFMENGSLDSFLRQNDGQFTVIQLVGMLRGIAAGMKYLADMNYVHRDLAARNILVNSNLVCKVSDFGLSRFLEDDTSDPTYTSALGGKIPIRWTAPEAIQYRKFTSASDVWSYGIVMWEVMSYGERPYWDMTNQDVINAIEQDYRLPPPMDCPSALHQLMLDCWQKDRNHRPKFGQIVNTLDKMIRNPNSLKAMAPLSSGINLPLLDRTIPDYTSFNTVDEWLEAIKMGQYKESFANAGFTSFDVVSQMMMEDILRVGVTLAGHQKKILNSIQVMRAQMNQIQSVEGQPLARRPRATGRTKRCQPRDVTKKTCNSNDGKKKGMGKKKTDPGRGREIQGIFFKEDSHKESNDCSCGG
# test-details: phosphorylation enrichment, bacterial display (enrichment ratio); higher = better substrate or ligand; peptides without Tyr show the background
Please mark fulfilled if the recorded phosphorylation enrichment is equal to or greater than 1, and not fulfilled if it falls below.

chain-sequence: DLSEVYKPCRK [CCDC93_Y176_R179C]
group: not fulfilled
//
chain-sequence: AGKEEYSAMRD [HRAS_Y64_Q61K]
group: not fulfilled
//
chain-sequence: PADQAYSWFQH [NDST1_Y711_R709Q_YF]
group: not fulfilled

Q: Dear colleague, could you confirm whether GDEAIYATVAG [NRTKtide_2018] has phosphorylation enrichment at or above 1?
A: fulfilled

Q: Dear colleague, could you confirm whether HVSISYDIPLT [GAB1_Y307_P311L] has phosphorylation enrichment at or above 1?
A: fulfilled

Q: Dear colleague, could you confirm whether LGSNGCKKLLK [SEPSECS_Y334_Y334C] has phosphorylation enrichment at or above 1?
A: fulfilled

Q: Dear colleague, could you confirm whether REENGYNTYAS [FGF10_Y161_I156R] has phosphorylation enrichment at or above 1?
A: not fulfilled

----------
# system-name: Hck (UniProt P08631)
# Sequence (P08631 whole entry, looked up): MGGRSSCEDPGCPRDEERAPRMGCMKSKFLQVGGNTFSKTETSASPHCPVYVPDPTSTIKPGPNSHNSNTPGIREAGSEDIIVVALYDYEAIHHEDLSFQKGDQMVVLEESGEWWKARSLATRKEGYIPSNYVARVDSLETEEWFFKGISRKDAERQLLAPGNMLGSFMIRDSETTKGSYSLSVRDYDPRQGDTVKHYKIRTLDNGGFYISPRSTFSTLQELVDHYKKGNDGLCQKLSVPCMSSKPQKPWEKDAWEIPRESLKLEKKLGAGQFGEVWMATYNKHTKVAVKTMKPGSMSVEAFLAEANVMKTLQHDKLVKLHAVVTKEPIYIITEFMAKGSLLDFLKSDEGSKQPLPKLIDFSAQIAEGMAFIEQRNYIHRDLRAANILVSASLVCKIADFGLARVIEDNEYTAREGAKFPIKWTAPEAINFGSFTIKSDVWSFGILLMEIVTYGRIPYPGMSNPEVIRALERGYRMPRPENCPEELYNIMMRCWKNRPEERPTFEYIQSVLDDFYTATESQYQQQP
# test-details: phosphorylation enrichment, bacterial display (enrichment ratio); higher = better substrate or ligand; peptides without Tyr show the background
Measured phosphorylation enrichment of individual entries
# print the numeric value only

chain-sequence: FPHVIYARLWR [SMAD4_Y95]
phosphorylation enrichment: 5.38

chain-sequence: WVFNHYRCIIW [BRCA2_Y2624_W2626C_YF]
phosphorylation enrichment: 0.574

Could you now consider this next sequence?
Q: Specify phosphorylation enrichment for TVVGLYQKSSL [MYH7_Y609] , system Hck (UniProt P08631).
A: 0.685

----------
# system-name: Jak2 (UniProt O60674)
# Sequence (O60674 whole entry, looked up): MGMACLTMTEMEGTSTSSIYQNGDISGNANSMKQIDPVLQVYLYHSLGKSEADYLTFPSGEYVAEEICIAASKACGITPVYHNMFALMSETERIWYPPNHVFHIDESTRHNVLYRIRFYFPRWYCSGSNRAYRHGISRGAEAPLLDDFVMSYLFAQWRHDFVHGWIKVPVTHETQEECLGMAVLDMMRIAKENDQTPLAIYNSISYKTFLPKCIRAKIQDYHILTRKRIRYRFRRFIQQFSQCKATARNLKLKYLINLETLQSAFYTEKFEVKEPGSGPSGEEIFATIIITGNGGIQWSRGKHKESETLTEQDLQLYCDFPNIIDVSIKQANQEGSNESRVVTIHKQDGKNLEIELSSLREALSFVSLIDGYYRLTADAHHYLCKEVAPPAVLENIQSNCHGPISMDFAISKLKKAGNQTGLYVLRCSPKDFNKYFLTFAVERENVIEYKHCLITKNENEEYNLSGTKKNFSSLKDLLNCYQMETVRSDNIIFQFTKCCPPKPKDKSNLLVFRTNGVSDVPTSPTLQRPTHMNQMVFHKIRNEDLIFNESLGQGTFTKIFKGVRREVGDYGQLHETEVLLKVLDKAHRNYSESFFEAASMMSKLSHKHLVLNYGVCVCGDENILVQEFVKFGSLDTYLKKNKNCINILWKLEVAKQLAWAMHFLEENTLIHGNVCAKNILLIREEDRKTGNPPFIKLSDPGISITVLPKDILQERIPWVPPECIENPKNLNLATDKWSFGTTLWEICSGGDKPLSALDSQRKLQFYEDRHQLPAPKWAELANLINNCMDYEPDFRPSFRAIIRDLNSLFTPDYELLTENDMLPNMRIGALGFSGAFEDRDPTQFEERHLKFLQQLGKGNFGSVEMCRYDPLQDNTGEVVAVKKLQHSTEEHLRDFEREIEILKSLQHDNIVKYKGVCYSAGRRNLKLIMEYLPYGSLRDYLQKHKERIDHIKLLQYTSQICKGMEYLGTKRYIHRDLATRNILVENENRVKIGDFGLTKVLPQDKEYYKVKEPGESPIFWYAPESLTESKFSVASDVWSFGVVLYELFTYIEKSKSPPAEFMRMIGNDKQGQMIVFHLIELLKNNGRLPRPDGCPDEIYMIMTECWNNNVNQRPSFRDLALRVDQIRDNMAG
# test-details: phosphorylation enrichment, bacterial display (enrichment ratio); higher = better substrate or ligand; peptides without Tyr show the background
Measured phosphorylation enrichment of individual entries
# print the numeric value only

// worked examples, phosphorylation enrichment included
chain-sequence: DLDTDYGSGFP [RNASEH2A_Y206_YF]
observed-value: 0.979

chain-sequence: VLSIDYFFPPQ [AR_Y552_P549S_YF]
observed-value: 1.58

Q: State, in one line, measured phosphorylation enrichment of LSGVIYVILWK [PMP22_Y153_R157W]
A: 1.55

Q: State, in one line, measured phosphorylation enrichment of SGDVQYRSSVR [FREM2_Y2158_T2153S]
A: 0.396

----------
Measured phosphorylation enrichment of individual entries
# system-name: Jak2 (UniProt O60674)
# test-details: phosphorylation enrichment, bacterial display (enrichment ratio); higher = better substrate or ligand; peptides without Tyr show the background
# print the numeric value only

chain-sequence: GDEEDYFEIPG [EGFR_opt_F_2015]
observed-value: 1.21

chain-sequence: QRRLVYYEGGA [RYR1_Y245]
observed-value: 0.682

chain-sequence: LDYNEYVRDLN [HPRT1_Y198_F199V]
observed-value: 1.06

chain-sequence: CLEKEYFDQHF [NPC1_Y394_R389C]
observed-value: 1.04

chain-sequence: GIFEDYVEGLR [MYL6_Y89_T85I_YF]
observed-value: 1.22

Q: Specify phosphorylation enrichment for LASSEYPVRRR [GALK1_Y236] , system Jak2 (UniProt O60674).
A: 0.475

Q: Specify phosphorylation enrichment for LEGEEYRMSGE [KRT3_Y511] , system Jak2 (UniProt O60674).
A: 1.58

Q: Specify phosphorylation enrichment for KELAPYDENRF [RPS19_Y48_W52R] , system Jak2 (UniProt O60674).
A: 1.05

Q: Specify phosphorylation enrichment for APNEFYDGDHD [HDAC3_Y414] , system Jak2 (UniProt O60674).
A: 1.32

Q: Specify phosphorylation enrichment for IDSTPYGQWYE [RPS8_Y109_R110G] , system Jak2 (UniProt O60674).
A: 0.984

Q: Specify phosphorylation enrichment for YLQEIHNSNNQ [FGG_Y140_Y140H] , system Jak2 (UniProt O60674).
A: 0.563

Q: Specify phosphorylation enrichment for IVAREYFSDAD [CAMK2A_Y106_E109D_YF] , system Jak2 (UniProt O60674).
A: 0.793

Q: Specify phosphorylation enrichment for RHLQEYQDLLN [GFAP_Y349] , system Jak2 (UniProt O60674).
A: 0.565

Q: Specify phosphorylation enrichment for TNEYEYDELIV [TGM1_Y136_D132N] , system Jak2 (UniProt O60674).
A: 1.29

Q: Specify phosphorylation enrichment for NFFDTYIKTCL [IQGAP2_Y1445_YF] , system Jak2 (UniProt O60674).
A: 1.34

Q: Specify phosphorylation enrichment for RQGKDYIGAIP [KDR_Y951_V952I] , system Jak2 (UniProt O60674).
A: 1.14

----------
# system-name: FGFR3 (UniProt P22607)
# Sequence (P22607 whole entry, looked up): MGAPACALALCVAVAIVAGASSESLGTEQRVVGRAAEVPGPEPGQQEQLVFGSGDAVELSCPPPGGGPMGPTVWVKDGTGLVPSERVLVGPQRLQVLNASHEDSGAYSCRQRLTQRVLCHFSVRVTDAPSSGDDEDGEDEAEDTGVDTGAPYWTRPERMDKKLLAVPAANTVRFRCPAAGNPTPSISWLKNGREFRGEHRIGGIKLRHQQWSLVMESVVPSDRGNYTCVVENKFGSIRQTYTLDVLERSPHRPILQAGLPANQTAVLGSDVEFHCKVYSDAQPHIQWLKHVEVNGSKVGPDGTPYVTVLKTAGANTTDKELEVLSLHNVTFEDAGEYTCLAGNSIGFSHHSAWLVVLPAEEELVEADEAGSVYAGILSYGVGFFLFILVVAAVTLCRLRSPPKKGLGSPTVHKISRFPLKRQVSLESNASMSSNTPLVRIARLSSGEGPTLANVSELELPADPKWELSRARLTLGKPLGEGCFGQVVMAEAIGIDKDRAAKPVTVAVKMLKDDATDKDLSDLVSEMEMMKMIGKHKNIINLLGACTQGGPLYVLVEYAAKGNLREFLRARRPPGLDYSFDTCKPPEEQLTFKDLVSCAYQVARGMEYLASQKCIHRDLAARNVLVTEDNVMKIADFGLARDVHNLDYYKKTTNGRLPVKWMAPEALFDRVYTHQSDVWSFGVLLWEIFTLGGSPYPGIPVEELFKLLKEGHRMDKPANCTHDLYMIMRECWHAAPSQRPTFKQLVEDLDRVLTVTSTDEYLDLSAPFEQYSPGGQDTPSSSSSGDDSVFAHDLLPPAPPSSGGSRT
# test-details: phosphorylation enrichment, bacterial display (enrichment ratio); higher = better substrate or ligand; peptides without Tyr show the background
Please mark MET if the recorded phosphorylation enrichment is equal to or greater than 0.6, and NOT MET if it falls below.

Worked examples, 8 sequences total:
chain-sequence: NFAKMYCNPDA [KNL1_Y489_YF]
system-name: FGFR3 (UniProt P22607)
group: MET
--
chain-sequence: AGIVDYNIIGW [MYH7_Y588]
system-name: FGFR3 (UniProt P22607)
group: MET
--
chain-sequence: LYEDRYLLGPS [ASS1_Y87_T91P]
system-name: FGFR3 (UniProt P22607)
group: MET
--
chain-sequence: AFHGEYIPTVF [RAC2_Y32_P29H]
system-name: FGFR3 (UniProt P22607)
group: MET
--
chain-sequence: RMGNLYDIDED [GRIN2A_Y1246]
system-name: FGFR3 (UniProt P22607)
group: MET
--
chain-sequence: NLNGKYNKPRA [ANGPTL3_Y417]
system-name: FGFR3 (UniProt P22607)
group: NOT MET
--
chain-sequence: HEHKGYNANFC [TGFB2_Y341_P338H]
system-name: FGFR3 (UniProt P22607)
group: MET
--
chain-sequence: AALVQYYMEHH [PTPN11_Y80_E76A]
system-name: FGFR3 (UniProt P22607)
group: MET

Q: Dear colleague, could you confirm whether NVKGIYAVGDV [GSR_Y371] has phosphorylation enrichment at or above 0.6?
A: NOT MET

Q: Dear colleague, could you confirm whether RNGNRYFKGIV [DCX_Y64_D62N] has phosphorylation enrichment at or above 0.6?
A: NOT MET

Q: Dear colleague, could you confirm whether YPQARYHWLVL [APTX_Y214_K211Q] has phosphorylation enrichment at or above 0.6?
A: MET

----------
Measured phosphorylation enrichment of individual entries
# system-name: Fes (UniProt P07332)
# Sequence (P07332 whole entry, looked up): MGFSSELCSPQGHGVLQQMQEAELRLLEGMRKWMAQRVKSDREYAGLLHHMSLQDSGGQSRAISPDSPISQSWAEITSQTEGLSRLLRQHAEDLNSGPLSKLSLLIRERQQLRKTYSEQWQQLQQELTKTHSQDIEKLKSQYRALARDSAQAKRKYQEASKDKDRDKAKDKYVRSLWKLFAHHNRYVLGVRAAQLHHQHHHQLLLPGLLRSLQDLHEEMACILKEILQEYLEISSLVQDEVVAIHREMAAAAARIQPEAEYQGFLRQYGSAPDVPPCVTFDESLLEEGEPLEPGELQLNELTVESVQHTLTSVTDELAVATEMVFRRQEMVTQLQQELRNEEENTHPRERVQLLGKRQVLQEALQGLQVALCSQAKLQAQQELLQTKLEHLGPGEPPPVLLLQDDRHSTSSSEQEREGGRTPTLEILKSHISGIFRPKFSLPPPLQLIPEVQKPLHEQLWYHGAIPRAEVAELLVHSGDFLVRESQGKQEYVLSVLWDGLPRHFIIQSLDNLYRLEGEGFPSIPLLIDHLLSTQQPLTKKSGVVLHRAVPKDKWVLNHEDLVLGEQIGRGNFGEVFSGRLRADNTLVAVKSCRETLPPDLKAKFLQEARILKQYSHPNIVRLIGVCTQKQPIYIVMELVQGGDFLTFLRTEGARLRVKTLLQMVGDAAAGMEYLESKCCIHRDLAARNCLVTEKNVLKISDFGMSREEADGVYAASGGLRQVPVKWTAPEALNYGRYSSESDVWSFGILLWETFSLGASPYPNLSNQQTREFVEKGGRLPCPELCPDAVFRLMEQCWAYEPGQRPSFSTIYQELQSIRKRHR
# test-details: phosphorylation enrichment, bacterial display (enrichment ratio); higher = better substrate or ligand; peptides without Tyr show the background
# print the numeric value only

// worked examples, phosphorylation enrichment included
chain-sequence: CTTIRYNFMCN [TP53_Y234_H233R_YF]
system-name: Fes (UniProt P07332)
phosphorylation enrichment: 0.983
//
chain-sequence: AAILGYCRGEA [XPC_Y669]
system-name: Fes (UniProt P07332)
phosphorylation enrichment: 1.02
//
chain-sequence: DMDATYRPMFS [JUP_Y701_YF]
system-name: Fes (UniProt P07332)
phosphorylation enrichment: 0.99

Q: Specify phosphorylation enrichment for ADELEYSRTGL [MMUT_Y287_G284E] , system Fes (UniProt P07332).
A: 0.972

----------
# system-name: EPHB2 (UniProt P29323)
# test-details: phosphorylation enrichment, bacterial display (enrichment ratio); higher = better substrate or ligand; peptides without Tyr show the background
property: phosphorylation enrichment
# print the numeric value only

// worked examples, phosphorylation enrichment included
chain-sequence: PLQKTYNHNVL [SLC4A1_Y553_Y555H]
property: phosphorylation enrichment
observed-value: 0.591

chain-sequence: FSALDYKIFYY [WDPCP_Y210_L205F]
property: phosphorylation enrichment
observed-value: 0.588

chain-sequence: DVSKEYGHLLP [HRC_Y99]
property: phosphorylation enrichment
observed-value: 0.608

chain-sequence: QRRLVYYEGGA [RYR1_Y245]
property: phosphorylation enrichment
observed-value: 0.606

Could you now consider this next sequence?
Q: State, in one line, measured phosphorylation enrichment of IDSTPYGQWYE [RPS8_Y109_R110G]
A: 0.612
